- Experiment description: AUC (infinity) in B10.R3 mouse at 30 mg/kg, po
- Format: ADME, organism-based
- Set-up: time infinity, dose 30 mg/kg, route oral
- Protocol conditions: plasma
Endpoint name: AUC(0-inf) (ng·h/mL)
Return type: number; implicit unit ng·h/mL.

May I ask what AUC(0-inf) has been recorded for CC(C)(C[C@@](O)(Cc1cc2ccc(C#N)cc2[nH]1)C(F)(F)F)c1cc(S(C)(=O)=O)cc2c1OCC2 ?
32700

----------
- Study system: UniProtKB P04150
- Sequence (P04150 whole entry): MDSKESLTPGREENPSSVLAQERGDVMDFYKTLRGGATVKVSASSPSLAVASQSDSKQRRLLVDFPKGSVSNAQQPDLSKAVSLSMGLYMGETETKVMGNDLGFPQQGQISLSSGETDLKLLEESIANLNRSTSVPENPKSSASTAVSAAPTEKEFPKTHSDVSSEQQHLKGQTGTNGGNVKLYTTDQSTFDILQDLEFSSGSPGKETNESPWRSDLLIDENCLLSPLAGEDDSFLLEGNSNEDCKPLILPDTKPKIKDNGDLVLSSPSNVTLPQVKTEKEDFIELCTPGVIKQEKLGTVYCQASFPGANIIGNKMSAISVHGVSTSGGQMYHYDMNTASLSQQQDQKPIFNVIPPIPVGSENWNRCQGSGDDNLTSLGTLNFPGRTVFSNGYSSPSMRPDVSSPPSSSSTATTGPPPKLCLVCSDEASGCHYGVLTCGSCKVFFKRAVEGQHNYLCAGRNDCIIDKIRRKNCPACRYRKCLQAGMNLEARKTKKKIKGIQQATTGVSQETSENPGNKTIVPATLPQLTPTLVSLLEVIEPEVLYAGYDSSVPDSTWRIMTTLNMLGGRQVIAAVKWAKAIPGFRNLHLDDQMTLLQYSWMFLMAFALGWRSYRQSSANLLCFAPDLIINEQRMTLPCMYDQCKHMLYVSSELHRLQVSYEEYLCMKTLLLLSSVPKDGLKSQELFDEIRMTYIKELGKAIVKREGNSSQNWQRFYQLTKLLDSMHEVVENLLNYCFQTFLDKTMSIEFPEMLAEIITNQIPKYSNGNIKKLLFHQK
- Experiment description: Agonist activity at glucocorticoid receptor in HFF assessed as inhibition of IL1-induced IL-6 production after 18 to 24 hrs
- Assay type: functional
Endpoint name: pIC50
As a rule, pIC50 stands for the negative log10 of the concentration, concentration in M.

Solved entries:
Molecule | Study system | Val
COc1ccc(F)cc1C(C)(C)CC(O)(Cc1cc2cc(F)ccc2[nH]1)C(F)(F)F (racemic) | UniProtKB P04150 | 7.11
COc1ccc(F)cc1C(C)(C)CC(O)(Cc1cc2cc(C(F)(F)F)ccc2[nH]1)C(F)(F)F (racemic) | UniProtKB P04150 | 6.72
CC(C)(C[C@@](O)(Cc1cc2ccc(C#N)cc2[nH]1)C(F)(F)F)c1cc(S(C)(=O)=O)cc2c1OCC2 | UniProtKB P04150 | 7.55
COc1ccc(F)cc1C(C)(C)CC(O)(Cc1cc2ccc(C)cc2[nH]1)C(F)(F)F (racemic) | UniProtKB P04150 | 6.48
COc1ccc(F)cc1C(C)(C)CC(O)(Cc1cc2c(C)cccc2[nH]1)C(F)(F)F (racemic) | UniProtKB P04150 | 8.22

API: the following record is the query input.
May I ask what pIC50 has been recorded for CC(C)(CC(O)(Cc1cc2ccccc2[nH]1)C(F)(F)F)c1cc(Br)cc2c1OCC2 (racemic) ?
7.80

meta.source: ChEMBL document CHEMBL1909618
